target.of.assay: β-PDGFR (Homo sapiens, UniProt P09619)
Sequence (P09619 33-1106): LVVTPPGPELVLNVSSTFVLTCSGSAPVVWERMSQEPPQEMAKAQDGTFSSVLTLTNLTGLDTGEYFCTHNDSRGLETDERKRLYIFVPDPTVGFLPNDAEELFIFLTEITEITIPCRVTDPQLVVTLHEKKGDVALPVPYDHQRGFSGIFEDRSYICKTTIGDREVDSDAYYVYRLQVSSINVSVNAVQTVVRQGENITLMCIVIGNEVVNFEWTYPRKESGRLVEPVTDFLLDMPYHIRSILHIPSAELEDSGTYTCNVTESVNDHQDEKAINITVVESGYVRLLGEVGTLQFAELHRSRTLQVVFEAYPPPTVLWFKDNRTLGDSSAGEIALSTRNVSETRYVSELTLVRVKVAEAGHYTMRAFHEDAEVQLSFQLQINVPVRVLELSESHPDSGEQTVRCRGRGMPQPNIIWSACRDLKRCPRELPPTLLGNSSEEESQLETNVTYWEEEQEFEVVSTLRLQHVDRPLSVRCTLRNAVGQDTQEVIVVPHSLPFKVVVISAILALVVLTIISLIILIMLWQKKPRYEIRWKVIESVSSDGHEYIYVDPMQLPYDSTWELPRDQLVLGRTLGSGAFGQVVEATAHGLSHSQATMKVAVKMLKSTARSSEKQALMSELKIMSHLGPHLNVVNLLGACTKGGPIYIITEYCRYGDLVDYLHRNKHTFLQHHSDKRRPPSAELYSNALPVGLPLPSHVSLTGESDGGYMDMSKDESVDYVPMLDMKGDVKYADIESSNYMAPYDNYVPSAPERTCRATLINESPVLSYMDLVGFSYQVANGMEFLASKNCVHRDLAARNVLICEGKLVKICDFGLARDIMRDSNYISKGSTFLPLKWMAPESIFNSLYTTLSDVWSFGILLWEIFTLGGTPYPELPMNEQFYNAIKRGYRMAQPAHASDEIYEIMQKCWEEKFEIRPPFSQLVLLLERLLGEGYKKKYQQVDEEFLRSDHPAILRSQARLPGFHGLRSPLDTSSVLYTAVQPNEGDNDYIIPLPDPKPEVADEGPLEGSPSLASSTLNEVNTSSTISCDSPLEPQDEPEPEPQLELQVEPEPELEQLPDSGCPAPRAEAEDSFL
test.name: HR5 phosphorylation assay (CHO cells overexpressing human β-PDGFR)
Type: cell-based
Set-up: host or cells: CHO cells (HR5 line)
cond: 8 nM PDGF BB for 10 minutes, PDGF receptor phosphorylation
measure: IC50 (nM)
Dear colleague, please return just the value in nM, with no unit written.

Task: Specify reported IC50 for the compound shown: `c1nc(N2CCNCC2)c2ccc(OCCN3CCCCC3)cc2n1`
Output: 150

* * *

target.of.assay: β-PDGFR (Homo sapiens, UniProt P09619)
test.name: MG63 phosphorylation assay (endogenous β-PDGFR phosphorylation, PDGF-BB stimulation with human plasma)
Type: cell-based
Design: This assay is for measuring endogenous β-PDGFR phosphorylation in MG63 cells; endogenous in cells; host or cells: MG63 human osteosarcoma cells (ATCC)
cond: MG63 human osteosarcoma cells; PDGF-BB stimulation in presence of 45% human plasma; PDGF receptor phosphorylation; read-out: MG63 w/human plasma IC50
measure: pIC50
As a rule, pIC50 stands for the negative log10 of the concentration, concentration in M.

Task: Specify reported pIC50 for the compound shown: `c1nc(N2CCNCC2)c2ccc(OCCN3CCCCC3)cc2n1`
Output: 6.99

Data origin: patent US6956039B2
